Experiment: chemical genetic growth profiling, strain panel (AID 1159580);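 further: tested at 20 µM; growth read once vehicle control cultures reached saturation at 30 °C; 1 = growth at the plate median or of vehicle wells; lower values mean less growth of the strain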
Conditions: S. cerevisiae deletion strains, growth OD, locus YMR307W, strain GAS1, stronger effect = lower value
Hit rate of the full screen: of about 5,500 compounds, about 2,000 (36%) were called active. Inconclusive results (about 18%) are left out. The list shows a part of the results.
normalized growth: recorded values
attribute_measured: normalized growth

In [3]: df
Out[3]:
                                   molecule  attribute_measured      result_value
0              CC[C@@H](CO)NCCN[C@@H](CC)CO   normalized growth   1.01 (inactive)
1       CCCN1CCC[C@@H]2Cc3nc(N)ncc3C[C@H]21   normalized growth  0.995 (inactive)
2                CCC1(c2ccccc2)C(=O)NCNC1=O   normalized growth  0.998 (inactive)
3                    O=c1ccc2cc(O)c(O)cc2o1   normalized growth  0.983 (inactive)
4  CCCC(=O)NCCc1c2n(c3ccc(OC)cc13)CCCc1ccccc1-2   normalized growth   1.01 (inactive)
5  Ic1ccccc1CNC1C2CCN(CC2)C1C(c1ccccc1)c1ccccc1 (configuration not stated)   normalized growth  0.989 (inactive)
6                          CN(C)CCCCSC(=N)N   normalized growth   1.01 (inactive)

# credit: PubChem BioAssay AID1159580
